Entry source: paper PMC1184061

Would you mind telling me the reported Ka of each entry?
TARGET_UNDER_TEST: zif268 DBD R18Q (QE) (UniProt P08046 331-420, R349Q)
TEST_DETAILS: EMSA (Scatchard x QuMFRA); derived; 30 mM Tris-HCl pH 8.0, 50 mM NaCl, 0.1 mg/ml BSA, 3 mM DTT, 20 uM ZnSO4, 5 ug/ml poly(dI-dC), 1 h on ice; 10% polyacrylamide gel

Read off the recorded Ka for Zif_6 (AC) (dsDNA) DNA 1: TCGAGGTCGACGGTATCGCGTGGGACCTCCACTAGTTCTAGAGCGGCCGCCAC DNA 2: GTGGCGGCCGCTCTAGAACTAGTGGAGGTCCCACGCGATACCGTCGACCTCGA
5.7 10^6 M-1

Read off the recorded Ka for Zif_1 (CG) (dsDNA) DNA 1: TCGAGGTCGACGGTATCGCGTGGGCGCTCCACTAGTTCTAGAGCGGCCGCCAC DNA 2: GTGGCGGCCGCTCTAGAACTAGTGGAGCGCCCACGCGATACCGTCGACCTCGA
3 10^6 M-1

Read off the recorded Ka for Zif_5 (AA) (dsDNA) DNA 1: TCGAGGTCGACGGTATCGCGTGGGAACTCCACTAGTTCTAGAGCGGCCGCCAC DNA 2: GTGGCGGCCGCTCTAGAACTAGTGGAGTTCCCACGCGATACCGTCGACCTCGA
4 10^6 M-1

Read off the recorded Ka for Zif_4 (AG) (dsDNA) DNA 1: TCGAGGTCGACGGTATCGCGTGGGAGCTCCACTAGTTCTAGAGCGGCCGCCAC DNA 2: GTGGCGGCCGCTCTAGAACTAGTGGAGCTCCCACGCGATACCGTCGACCTCGA
3.9 10^6 M-1

Read off the recorded Ka for Zif_2 (CA) (dsDNA) DNA 1: TCGAGGTCGACGGTATCGCGTGGGCACTCCACTAGTTCTAGAGCGGCCGCCAC DNA 2: GTGGCGGCCGCTCTAGAACTAGTGGAGTGCCCACGCGATACCGTCGACCTCGA
4.5 10^6 M-1
